Target: Cholecystokinin receptor type A (Homo sapiens, UniProt P32238)
Sequence (P32238 whole entry): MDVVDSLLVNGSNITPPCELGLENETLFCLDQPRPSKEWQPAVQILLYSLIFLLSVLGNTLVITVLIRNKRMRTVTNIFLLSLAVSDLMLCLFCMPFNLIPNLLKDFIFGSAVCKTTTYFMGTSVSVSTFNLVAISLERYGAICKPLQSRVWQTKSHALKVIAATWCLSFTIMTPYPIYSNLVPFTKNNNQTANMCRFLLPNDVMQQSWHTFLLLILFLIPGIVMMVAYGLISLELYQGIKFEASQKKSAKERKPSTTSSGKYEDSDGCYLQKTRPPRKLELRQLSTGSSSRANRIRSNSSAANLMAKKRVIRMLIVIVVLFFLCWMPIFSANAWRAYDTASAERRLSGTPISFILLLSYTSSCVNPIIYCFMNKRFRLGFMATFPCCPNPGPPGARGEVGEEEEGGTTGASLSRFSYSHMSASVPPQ
Test: Displacement of [125I]-CCK-8 from human CCK1R expressed in human 1321N1 cell membranes after 2 hrs by SPA assay
Numbered stars: 1 amine (or outer) side, 2 acyl side, 3 side chain; on linkers, the order of the positions; unused ones are H or OH. Square brackets hold non-standard residues; d marks the D form. Peptide text beside a SMILES is read from it. * marks the point of attachment. sY = N[C@@H](Cc1ccc(OS(=O)(=O)O)cc1)C(=O)O; C18 diacid = O=C(O)CCCCCCCCCCCCCCCCC(=O)*; γGlu = O=C(O)[C@H](CCC(=O)[*:2])N[*:1]; NMeF = CN[C@@H](Cc1ccccc1)C(=O)O; NMeD = CN[C@@H](CC(=O)O)C(=O)O; Nle = CCCC[C@H](N)C(=O)O; X1 = O=C(Cc1ccc(O)cc1)*; AEEA = NCCOCCOCC(=O)O
I'd appreciate it if you could supply IC50 values for the items below.
One number for each entry, in nM.

Compound	Observation Type	Numeric Value
CCCC[C@H](NC(=O)Cc1ccc(O)cc1)C(=O)NCC(=O)N[C@@H](Cc1c[nH]c2ccccc12)C(=O)N[C@@H](CCCC)C(=O)N(C)[C@@H](CC(=O)O)C(=O)N(C)[C@@H](Cc1ccccc1)C(N)=O (X1-[Nle]GW[Nle][NMeD][NMeF]-NH2)	IC50	42.7

For the next question, use this compound.
[in] Field request: IC50 | item: CCCC[C@H](NC(=O)[C@H](Cc1ccc(OS(=O)(=O)O)cc1)NC(=O)[C@H](CC(=O)O)NC(=O)COCCOCCNC(=O)COCCOCCNC(=O)CC[C@H](NC(=O)CCCCCCCCCCCCCCCCC(=O)O)C(=O)O)C(=O)NCC(=O)N[C@@H](Cc1c[nH]c2ccccc12)C(=O)N[C@H](C(=O)N[C@@H](CC(=O)O)C(=O)N[C@@H](Cc1ccccc1)C(N)=O)[C@@H](C)CC ({C18 diacid-γGlu-AEEA-AEEA}-D[sY][Nle]GWIDF-NH2)
[out] 0.794

###

experiment: Plasma concentration in lean Landrace Yorkshire Duroc pig at 30 nmol/kg, sc measured after 96 hrs post dose; type: ADME, organism-based, Sus scrofa
Numbered stars: 1 amine (or outer) side, 2 acyl side, 3 side chain; on linkers, the order of the positions; unused ones are H or OH. Square brackets hold non-standard residues; d marks the D form. Peptide text beside a SMILES is read from it. * marks the point of attachment. Phe(4-CH2SO3H) = N[C@@H](Cc1ccc(CS(=O)(=O)O)cc1)C(=O)O; sY = N[C@@H](Cc1ccc(OS(=O)(=O)O)cc1)C(=O)O; C18 diacid = O=C(O)CCCCCCCCCCCCCCCCC(=O)*; γGlu = O=C(O)[C@H](CCC(=O)[*:2])N[*:1]; βAsp = O=C(O)[C@H](CC(=O)[*:2])N[*:1]; NMeF = CN[C@@H](Cc1ccccc1)C(=O)O; NMeD = CN[C@@H](CC(=O)O)C(=O)O; dNMeD = CN[C@H](CC(=O)O)C(=O)O; Nle = CCCC[C@H](N)C(=O)O; AEEA = NCCOCCOCC(=O)O
I'd appreciate it if you could supply log10 concentration at 96 h values for the items below.
// stored as log10 of concentration at 96 h expressed in nM

Compound	log10 concentration at 96 h
CCCC[C@H](NC(=O)[C@H](Cc1ccc(CS(=O)(=O)O)cc1)NC(=O)[C@H](CC(=O)O)NC(=O)COCCOCCNC(=O)COCCOCCNC(=O)CC[C@H](NC(=O)CCCCCCCCCCCCCCCCC(=O)O)C(=O)O)C(=O)NCC(=O)N[C@@H](Cc1c[nH]c2ccccc12)C(=O)N[C@@H](CCCC)C(=O)N(C)[C@H](CC(=O)O)C(=O)N(C)[C@@H](Cc1ccccc1)C(N)=O ({C18 diacid-γGlu-AEEA-AEEA}-D[Phe(4-CH2SO3H)][Nle]GW[Nle][dNMeD][NMeF]-NH2)	1.93

Provide log10 concentration at 96 h values for the following items, in order.
1. CC(C)C[C@H](NC(=O)[C@H](Cc1ccc(OS(=O)(=O)O)cc1)NC(=O)[C@H](CC(=O)O)NC(=O)COCCOCCNC(=O)COCCOCCNC(=O)CC[C@H](NC(=O)CCCCCCCCCCCCCCCCC(=O)O)C(=O)O)C(=O)NCC(=O)N[C@@H](Cc1c[nH]c2ccccc12)C(=O)N[C@@H](CCC(N)=O)C(=O)N(C)[C@H](CC(=O)O)C(=O)N(C)[C@@H](Cc1ccccc1)C(N)=O ({C18 diacid-γGlu-AEEA-AEEA}-D[sY]LGWQ[dNMeD][NMeF]-NH2)
2. CCCC[C@H](NC(=O)[C@H](Cc1c[nH]c2ccccc12)NC(=O)CNC(=O)[C@H](CC(C)C)NC(=O)[C@H](Cc1ccc(O)cc1)NC(=O)[C@H](CC(=O)O)NC(=O)COCCOCCNC(=O)COCCOCCNC(=O)CC[C@H](NC(=O)CCCCCCCCCCCCCCCCC(=O)O)C(=O)O)C(=O)N(C)[C@@H](CC(=O)O)C(=O)N(C)[C@@H](Cc1ccccc1)C(N)=O
3. CCCC[C@H](NC(=O)[C@H](Cc1ccc(CS(=O)(=O)O)cc1)NC(=O)C[C@H](NC(=O)COCCOCCNC(=O)COCCOCCNC(=O)CC[C@H](NC(=O)CCCCCCCCCCCCCCCCC(=O)O)C(=O)O)C(=O)O)C(=O)NCC(=O)N[C@@H](Cc1c[nH]c2ccccc12)C(=O)N[C@@H](CCCC)C(=O)N(C)[C@H](CC(=O)O)C(=O)N(C)[C@@H](Cc1ccccc1)C(N)=O ({C18 diacid-γGlu-AEEA-AEEA-βAsp}-[Phe(4-CH2SO3H)][Nle]GW[Nle][dNMeD][NMeF]-NH2)
4. CCCC[C@H](NC(=O)[C@H](Cc1ccc(CS(=O)(=O)O)cc1)NC(=O)[C@H](CC(=O)O)NC(=O)COCCOCCNC(=O)COCCOCCNC(=O)CC[C@H](NC(=O)CCCCCCCCCCCCCCCCC(=O)O)C(=O)O)C(=O)NCC(=O)N[C@@H](Cc1c[nH]c2ccccc12)C(=O)N[C@@H](CCCC)C(=O)N(C)[C@@H](CC(=O)O)C(=O)N(C)[C@@H](Cc1ccccc1)C(N)=O ({C18 diacid-γGlu-AEEA-AEEA}-D[Phe(4-CH2SO3H)][Nle]GW[Nle][NMeD][NMeF]-NH2)
5. CCCC[C@H](NC(=O)[C@H](Cc1ccc(CS(=O)(=O)O)cc1)NC(=O)[C@H](CC(=O)O)NC(=O)COCCOCCNC(=O)[C@H](CCCCN)NC(=O)COCCOCCNC(=O)COCCOCCNC(=O)CC[C@H](NC(=O)CCCCCCCCCCCCCCCCC(=O)O)C(=O)O)C(=O)NCC(=O)N[C@@H](Cc1c[nH]c2ccccc12)C(=O)N[C@@H](CCCC)C(=O)N(C)[C@H](CC(=O)O)C(=O)N(C)[C@@H](Cc1ccccc1)C(N)=O ({C18 diacid-γGlu-AEEA-AEEA}-K[AEEA]D[Phe(4-CH2SO3H)][Nle]GW[Nle][dNMeD][NMeF]-NH2)

[out]
1.96
0.93
1.95
1.97
0.94
